Target: human IL-6 (mature hIL-6) (human, UniProt P05231 30-212)
Sequence (P05231 30-212): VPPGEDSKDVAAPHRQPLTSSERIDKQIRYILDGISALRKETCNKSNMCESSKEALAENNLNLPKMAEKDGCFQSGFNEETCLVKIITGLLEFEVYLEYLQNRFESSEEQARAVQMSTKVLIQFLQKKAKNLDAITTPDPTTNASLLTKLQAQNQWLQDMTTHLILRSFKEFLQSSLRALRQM
Experiment: cell-based or functional assay
test-readout: Relative IC50 to Reference Polypeptide_29 (fold)

Some binders with recorded Relative IC50 to Reference Polypeptide_29:
binder	measured-result
Polypeptide_52 (VHH) VHH: EVQLVESGGGLVQPGGSLKLSCTTSGRTFSEYAVGWFRQAPGKEREFVADIGEQAENTWYAESVLGRFTISRDDAKNTVYLEMDGLKPEDTAVYYCAADKYGVGGNAQGYYDSWGQGTQVTVSS	1.6
Polypeptide_50 (VHH) VHH: ELQLVESGGGLVQPGGSLKLSCTTSGRRFSEYAVGWFRQAPGKEREFVADIGEQAENTWYAESVLGRFTISRDDAKNTVYLEMDGLKPEDTAVYYCAADKYGVGGNAQGYYDSWGQGTQVTVSS	1.4
Polypeptide_54 (VHH) VHH: EVQLVESGGGLVQPGGSLKLSCTTSGRRFSEYAVGWFRQAPGKEREFVADIGENAENTWYAESVLGRFTISRDDAKNTVYLEMDGLKPEDTAVYYCAADKYGVGGNAQGYYDSWGQGTQVTVSS	4.4
Polypeptide_58 (VHH) VHH: EVQLVESGGGLVQPGGSLKLSCTTSGRRFSEYAVGWFRQAPGKEREFVADIGEQAENTWYAESVLGRFTISRDNAKNTVYLEMDGLKPEDTAVYYCAADKYGVGGNAQGYYDSWGQGTQVTVSS	1.4
Polypeptide_56 (VHH) VHH: EVQLVESGGGLVQPGGSLKLSCTTSGRRFSEYAVGWFRQAPGKEREFVADIGEQAENTWYAHSVLGRFTISRDDAKNTVYLEMDGLKPEDTAVYYCAADKYGVGGNAQGYYDSWGQGTQVTVSS	4.9

[1] Polypeptide_57 (VHH) VHH: EVQLVESGGGLVQPGGSLKLSCTTSGRRFSEYAVGWFRQAPGKEREFVADIGEQAENTWYAESVKGRFTISRDDAKNTVYLEMDGLKPEDTAVYYCAADKYGVGGNAQGYYDSWGQGTQVTVSS
[2] Polypeptide_62 (VHH) VHH: EVQLVESGGGLVQPGGSLKLSCTTSGRRFSEYAVGWFRQAPGKEREFVADIGEQAENTWYAESVLGRFTISRDDAKNTVYLEMDGLKPEDTAVYYCAADKYGVGGGAQGYYDSWGQGTQVTVSS
[3] Polypeptide_51 (VHH) VHH: EVQLVESGGGWVQPGGSLKLSCTTSGRRFSEYAVGWFRQAPGKEREFVADIGEQAENTWYAESVLGRFTISRDDAKNTVYLEMDGLKPEDTAVYYCAADKYGVGGNAQGYYDSWGQGTQVTVSS
Q: Ascending by Relative IC50 to Reference Polypeptide_29, please. Reply with the labels, ordered as the question asks.
A: 3, 1, 2

Measured values drawn from patent US20250333496A1 for this set.
